Biological target: T1, human LILRB1 recombinant protein (human, UniProt Q8NHL6 24-461)
T1 construct: The ELISA method says only 'LILRB1 recombinant proteins' coated on plates; also called leukocyte immunoglobulin-like receptor subfamily B member 1
T1 sequence (Q8NHL6 24-461 limits assumed): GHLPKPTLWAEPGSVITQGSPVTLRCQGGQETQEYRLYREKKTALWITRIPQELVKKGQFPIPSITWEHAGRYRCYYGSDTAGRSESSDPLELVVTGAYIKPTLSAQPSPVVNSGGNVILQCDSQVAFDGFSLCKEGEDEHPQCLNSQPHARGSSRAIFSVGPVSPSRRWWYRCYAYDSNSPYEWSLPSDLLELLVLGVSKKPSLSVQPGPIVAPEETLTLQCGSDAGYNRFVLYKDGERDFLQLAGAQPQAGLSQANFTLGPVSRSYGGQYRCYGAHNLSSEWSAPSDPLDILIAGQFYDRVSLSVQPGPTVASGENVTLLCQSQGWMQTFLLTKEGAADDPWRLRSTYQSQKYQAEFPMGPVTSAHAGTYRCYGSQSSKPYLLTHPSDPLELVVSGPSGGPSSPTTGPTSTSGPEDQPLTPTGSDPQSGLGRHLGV
Experiment: ELISA, B cell supernatant

- binder: "mAb of B cell clone 76 (supernatant) (antibody, V domains shown, rabbit; also called B1-#76) VH: EQSVEESGGGLVQPEGSLTLTCTASGFSFSGSCDMSWVRQAPGKGLEWIACIVLSNGNTYYAGWAQGRFTISKISSTTVTLEMTSLTAADTATYFCARERYPGAFSSGLDLWGQGTLVTVSS VL: ELDLTQTPSPVSAAVGGTVTINCQASQIVANGRLAWYQQKPGQPPKLLIYATSTLASGVPSRFKGSGSGTQFTLTINGVQCDDAATYYCQGAYSSGDVRTFGGGTEVVVK"
  readout.unit: "OD450"
  OD450: 2.14
- binder: "mAb of B cell clone 4 (supernatant) (antibody, V domains shown, rabbit; also called B1-#4) VH: RAVGKESGGGLVKPGASLTLTCKASGFDFSGIYWVCWVRQAPGKGLEWIACFDAERTGNTYYATWAKGRFTISRTSSTTVTLQMTSLTAADTATYFCARSYYMWGPGTLVTVSS VL: ELVLTQTPSPVSAVVGGSVTINCQSSQSLYNANDLSWYQQKPGQPPKQLIYWASTLASGVPSRFKGSGSGTQFTLSISDVQCDDAATYYCLGEFSCSSFDCHVFGGGTEVVVK"
  readout.unit: "OD450"
  OD450: 2.47
- binder: "mAb of B cell clone 93 (supernatant) (antibody, V domains shown, rabbit; also called B1-#93) VH: EQSVEESGGDLVKPGTSLTLTCTASGFSFSGNTICWVRQAPGKRPEWIACIYPSSTSITTYATWAKGRFTVSKTSSTTVTLQMTSLTAADTATYFCARRYAAFLTYGSGAFDPWGPGTLVTISS VL: ELDLTQTPASVSAAVGGTVTINCQASESIGSALAWYQQKPGQPPKLLIYSASALASGVPSRFKGSGSGTEYTLTISDLECADAATYYCQSYYGSGTTALDTFGGGTEVEIK"
  readout.unit: "OD450"
  OD450: 1.72
